Test: Pharmacokinetics after intravenous or oral administration of 10 mg/kg EZE to control and CCl4-induced rats
Format: in vivo
Conditions: Sprague-Dawley, rat, plasma, po, 10 mg/kg, p.o. 10 mg/kg EZE, CCl4-induced rats
Method: Animals were fasted for 12 h with free access to water before the experiments. […] WinNonlin version 6.1 (Pharsight Corp., Cary, NC, USA) was used to calculate the pharmacokinetic parameters in a non-compartmental model. Statistical comparisons between the two groups were evaluated using a Student’s two-tailed unpaired t-test or the nonparametric Mann–Whitney test in GraphPad Prism (version 8.0, GraphPad Software Inc, SanDiego, CA, USA). […]
endpoint: Cmax (ng/mL)
One number for each entry, in ng/mL.

INSERT INTO assay_data (molecule, endpoint, endpointresult) VALUES
  ('O=C(O)[C@H]1O[C@@H](Oc2ccc([C@@H]3[C@@H](CC[C@H](O)c4ccc(F)cc4)C(=O)N3c3ccc(F)cc3)cc2)[C@H](O)[C@@H](O)[C@@H]1O [EZE-Ph, ezetimibe phenoxy β-D-glucuronide]', 'Cmax', 1340),
  ('O=C(O)[C@H]1O[C@@H](O[C@@H](CC[C@H]2C(=O)N(c3ccc(F)cc3)[C@@H]2c2ccc(O)cc2)c2ccc(F)cc2)[C@H](O)[C@@H](O)[C@@H]1O [EZE-Hy, ezetimibe hydroxy β-D-glucuronide]', 'Cmax', 38.1);

Ask: Quick one: Cmax of O=C1[C@H](CC[C@H](O)c2ccc(F)cc2)[C@@H](c2ccc(O)cc2)N1c1ccc(F)cc1 [EZE, reference compound] ?
Reply: 20.4

----------
Assay: Pharmacokinetics after intravenous or oral administration of 10 mg/kg EZE to control and CCl4-induced rats
Assay type: in vivo
Conditions: Sprague-Dawley, rat, plasma, po, 10 mg/kg, p.o. 10 mg/kg EZE, control rats
I'd be grateful if you could share measured AUC(0-t) for these entries.
Numbers only, in ng·h/mL.

Some solved cases for reference:
INSERT INTO results (compound, endpointresult) VALUES
  ('O=C1[C@H](CC[C@H](O)c2ccc(F)cc2)[C@@H](c2ccc(O)cc2)N1c1ccc(F)cc1 [EZE, reference compound]', 17),
  ('O=C(O)[C@H]1O[C@@H](Oc2ccc([C@@H]3[C@@H](CC[C@H](O)c4ccc(F)cc4)C(=O)N3c3ccc(F)cc3)cc2)[C@H](O)[C@@H](O)[C@@H]1O [EZE-Ph, ezetimibe phenoxy β-D-glucuronide]', 4170);

Ask: So what's the measured AUC(0-t) for this one? O=C(O)[C@H]1O[C@@H](O[C@@H](CC[C@H]2C(=O)N(c3ccc(F)cc3)[C@@H]2c2ccc(O)cc2)c2ccc(F)cc2)[C@H](O)[C@@H](O)[C@@H]1O [EZE-Hy, ezetimibe hydroxy β-D-glucuronide]
Reply: 463

Source of measurements: paper PMC9785202
